- tested_system: JAK1 (aa 850-1154, catalytic domain, GST-tag) (Homo sapiens, UniProt P23458)
- Construct: JAK1 (aa 850-1154) and TYK2 (aa 871-1187) are expressed with an N-terminally fused GST-tag; GST (N); purchased Carna Biosciences, Inc; host or cells: baculovirus expression system
- Sequence (P23458 850-1154): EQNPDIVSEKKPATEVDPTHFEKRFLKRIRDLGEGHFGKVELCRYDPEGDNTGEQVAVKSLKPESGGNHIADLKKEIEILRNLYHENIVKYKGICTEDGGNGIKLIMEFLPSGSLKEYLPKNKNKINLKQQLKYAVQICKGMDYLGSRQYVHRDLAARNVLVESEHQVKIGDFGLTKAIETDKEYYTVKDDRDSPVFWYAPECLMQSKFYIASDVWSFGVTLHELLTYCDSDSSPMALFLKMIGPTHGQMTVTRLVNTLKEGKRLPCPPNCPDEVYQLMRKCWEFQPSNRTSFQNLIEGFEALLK
- procedure_text: JAK kinase assay (HTRF, phosphorylation of TK substrate-biotin), JAK1
- Format: biochemical
- particulars: HTRF assay, ATP at Km (7 μM); read-out: JAK1 kinase inhibitory activity (EC50 indicator)
Listed next: entries and their corresponding EC50.

Some entries whose results are on file:
>>> measured_value("Cc1nccnc1C(=O)N1CCN(c2ncnc3[nH]ccc23)CC12CC2")
"< 100 nM"
>>> measured_value("COc1ncccc1C(=O)N1CCN(c2ncnc3[nH]ccc23)CC12CC2")
"100 to 500 nM"
>>> measured_value("N#CCC(=O)N1CCN(c2ccnc3[nH]ccc23)CC12CC2")
"100 to 500 nM"
>>> measured_value("COc1cnc2[nH]ccc2c1N1CCN(C(=O)c2cc3ccccc3s2)C2(CC2)C1")
"> 500 nM"
>>> measured_value("O=C([C@@H]1CCCc2ccccc21)N1CCN(c2ncnc3[nH]ccc23)CC12CC2")
"100 to 500 nM"
>>> measured_value("CS(=O)(=O)c1cccc(C(=O)N2CCN(c3ncnc4[nH]ccc34)CC23CC3)c1")
"< 100 nM"
>>> measured_value("O=C(c1nsc2cc(Br)ccc12)N1[C@@H]2CC[C@@H]1CN(c1ncnc3[nH]ccc13)C2")
"100 to 500 nM"
>>> measured_value("COC(=O)c1cc2c(N3CCN(C(=O)Cc4ccc(F)cc4)C4(CC4)C3)ncnc2[nH]1")
"> 500 nM"

Data request: Give a short answer stating reported EC50 for `N#CC1(C(=O)N2CCN(c3nc(N)nc4[nH]ccc34)CC23CC3)CC1` .
Data returned: 100 to 500 nM

Data request: Give a short answer stating reported EC50 for `N#Cc1cccc(CC(=O)N2CCN(c3ccnc4[nH]ccc34)CC23CC3)c1` .
Data returned: > 500 nM

Data request: Give a short answer stating reported EC50 for `Cc1c[nH]c2ncnc(N3CCN(C(=O)Cc4ccc(CC#N)cc4)C4(CC4)C3)c12` .
Data returned: > 500 nM

Data request: Give a short answer stating reported EC50 for `CC(=O)Nc1ccc(C(=O)N2[C@@H]3CC[C@@H]2CN(c2ncnc4[nH]ccc24)C3)cc1` .
Data returned: < 100 nM
